Recorded measurements of melting point, one per entry

In [3]: df
Out[3]:
                              sample_smiles  reported_result
0  COc1cccc(N2CCN(CCCCNC(=O)c3ccccc3)CC2)n1    120 to 121 °C

Qu. Can you look up the measured melting point of "O=C(NCCCCN1CCN(c2ccccc2)CC1)c1cccnc1" for me?
Ans. 119 to 120 °C

Qu. Can you look up the measured melting point of "O=C1c2cc3ccccc3n2CCN1CCCCN1CCN(c2cccc(Cl)c2)CC1" for me?
Ans. 180 to 181 °C

Qu. Can you look up the measured melting point of "O=C(NCCCCN1CCN(c2ccccc2)CC1)c1cc2ccccc2o1" for me?
Ans. 149 to 150 °C

----------
Recorded measurements of melting point, one per entry

>>> df
                                   molecule  reported_result
0  O=C(NCCCCN1CCN(c2cnc3ccccc3c2)CC1)c1ccccc1    124 to 125 °C
1  Cc1cccc(N2CCN(CCCCNC(=O)c3ccccc3)CC2)c1 [Compound 1-46]    126 to 127 °C
2  COc1cccc(N2CCN(CCCCNC(=O)c3cc4ccccc4o3)CC2)c1    104 to 105 °C
3  COc1cccc(N2CCN(CCCCNC(=O)c3ccccc3)CC2)c1 [Compound 1-45]    111 to 112 °C

Qu. Can you look up the measured melting point of "O=C(NCCCCN1CCN(c2cnc3ccccc3c2)CC1)c1cc2ccccc2cn1" for me?
Ans. 153 to 154 °C

Qu. Can you look up the measured melting point of Cc1cccc(N2CCN(CCCCCOc3cc4ccccc4cn3)CC2)c1 [Compound 1-12] for me?
Ans. 94 to 95 °C
